Just for reference, ChEMBL document CHEMBL1817626 is where these values come from.

Test system: Mycobacterium tuberculosis
Assay: microbe, parasite or virus in culture
Details: H37Rv, 168 h
Kindly state log10 of MIC for each of the entries shown.
Lab note - MIC converted to log10 from values in µg/mL.

Use the examples below as a reference point.
| COMPOUND | log10 of MIC |
| --- | --- |
| CC(C)CCOc1ccc(NC(=S)Nc2ccc(OCCC(C)C)cc2)cc1 [TIOCARLIDE] | 0.40 |
| O=C(NCC12CC3CC(CC(C3)C1)C2)Nc1ccc(F)c(F)c1F | -2.00 |
| CCCOCCNC(=O)NC12CC3CC(CC(C3)C1)C2 | 1.40 |
| Cc1ccc(NC(=O)NCc2cccc(F)c2)cc1Cl | 0.78 |
| CC(C)OCCNC(=O)NC12CC3CC(CC(C3)C1)C2 | 1.40 |

Value sought for every listed compound: log10 of MIC.
1. CC(CCc1ccccc1)NC(=O)Nc1cccc(C(F)(F)F)c1F (stereo not given)
2. O=C(Nc1cccc(C(F)(F)F)c1F)NC1CCCCCCC1
3. COC(=O)c1ccc(NC(=O)NC23CC4CC(CC(C4)C2)C3)cc1O
4. CCCCCCCNC(=O)Nc1cccc(C(F)(F)F)c1F
5. CC1(C)C2CCC(CNC(=O)Nc3ccc(F)c(F)c3F)C1C2 (stereo not given)

(A)
1. 0.20
2. -0.10
3. -0.40
4. 0.48
5. -0.70

###

Kindly state IC50 for each of the entries shown.
System: Vero
Assay: Cytotoxicity against african green monkey Vero cells after 72 hrs by MTT assay
Type: cell-based
Details: Chlorocebus sabaeus
Give the value; after it, write the unit.

Use the examples below as a reference point.
| COMPOUND | IC50 |
| --- | --- |
| COC(=O)c1ccc(NC(=O)NC23CC4CC(CC(C4)C2)C3)cc1O | 30.3 µg/mL |
| CCCNC(=O)NC1C2CC3CC(C2)CC1C3 (stereo unspecified) | 171 µg/mL |
| N#Cc1ccc(NC(=O)NC2C3CC4CC(C3)CC2C4)cc1 (stereo unspecified) | 7.1 µg/mL |
| O=C(Nc1ccc(F)c(F)c1F)NC1CCCCCCC1 | 63.4 µg/mL |
| O=C(NCc1cccc(Cl)c1)Nc1cccc(C(F)(F)F)c1F | 193 µg/mL |

Value sought for every listed compound: IC50.
1. O=C(NCCc1ccccc1)NC1C2CC3CC(C2)CC1C3 (stereo unspecified)
2. COCCCNC(=O)NC12CC3CC(CC(C3)C1)C2
3. CCCCCCNC(=O)NC1C2CC3CC(C2)CC1C3 (stereo unspecified)
4. Cc1c(Cl)cccc1NC(=O)NC1C2CC3CC(C2)CC1C3 (stereo unspecified)
5. CCCCCCCNC(=O)Nc1ccc(C)c(Cl)c1
6. CC(=O)c1cccc(NC(=O)NC2C3CC4CC(C3)CC2C4)c1 (stereo unspecified)
7. CC(C)OCCNC(=O)NC12CC3CC(CC(C3)C1)C2
8. O=C(Nc1ccc(F)c(F)c1F)NC1CCCCC1

(A)
1: 30.2 µg/mL; 2: 20.4 µg/mL; 3: 175 µg/mL; 4: 26.4 µg/mL; 5: 186 µg/mL; 6: 9.7 µg/mL; 7: 6.4 µg/mL; 8: 15.9 µg/mL

###

Target: UniProt:P95276
Sequence (P95276 whole entry): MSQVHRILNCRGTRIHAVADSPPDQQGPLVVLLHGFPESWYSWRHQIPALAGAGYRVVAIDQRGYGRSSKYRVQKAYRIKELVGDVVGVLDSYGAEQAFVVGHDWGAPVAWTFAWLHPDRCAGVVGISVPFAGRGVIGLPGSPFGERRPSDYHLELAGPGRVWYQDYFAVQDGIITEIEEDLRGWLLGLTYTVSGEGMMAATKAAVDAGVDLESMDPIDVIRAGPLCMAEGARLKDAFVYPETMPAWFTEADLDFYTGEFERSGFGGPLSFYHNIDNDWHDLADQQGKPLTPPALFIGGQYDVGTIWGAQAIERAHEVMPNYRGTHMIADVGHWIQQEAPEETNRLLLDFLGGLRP
Experiment: Inhibition of Mycobacterium tuberculosis recombinant EphB expressed in Escherichia coli BL21 using CMNPC as substrate at 10 nM after 30 mins by fluorescent assay relative to control
The source made the active and inactive calls. No cut-off for these calls is given here.
READOUT: inhibition

| MOLECULE | inhibition |
| --- | --- |
| COC(=O)c1ccc(NC(=O)NC23CC4CC(CC(C4)C2)C3)cc1O | 26.9% |
| CC(C)CCOc1ccc(NC(=S)Nc2ccc(OCCC(C)C)cc2)cc1 [TIOCARLIDE] | inactive |
| COCCCNC(=O)NC12CC3CC(CC(C3)C1)C2 | 23.7% |
| CN(C(=O)NC1C2CC3CC(C2)CC1C3)c1ccc(F)c(F)c1F (configuration not stated) | 6.7% |
| CN(C(=O)N(C)C1C2CC3CC(C2)CC1C3)c1ccc(F)c(F)c1F (configuration not stated) | < 1% |

Value sought for every listed molecule: inhibition.
1. O=C(NCc1ccccc1)NC1C2CC3CC(C2)CC1C3 (configuration not stated)
2. O=C(Nc1ccc(F)c(F)c1F)NC1CCCCCCC1
3. CCCCCCCNC(=O)Nc1ccc(C)c(Cl)c1
4. CCCCCCNC(=O)NC1C2CC3CC(C2)CC1C3 (configuration not stated)

(A)
["inactive", "95.7%", "91%", "32%"]

Value sought for every listed molecule: inhibition.
1. Cc1ccc(NC(=O)NC(C)CCc2ccccc2)cc1Cl (configuration not stated)
2. Cc1ccc(NC(=O)NCC23CC4CC(CC(C4)C2)C3)cc1Cl
3. CCCCCCCNC(=O)Nc1ccc(F)c(F)c1F

(A)
81.9%
33.9%
87.5%
